B1: CPEB3 Ribozyme (parent)
chain: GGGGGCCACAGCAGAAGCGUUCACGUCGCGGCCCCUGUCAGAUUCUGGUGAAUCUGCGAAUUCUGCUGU

# Variants of: B1
# Procedure details: self-cleavage, relative activity (ratio to wild type); higher = more cleavage; co-transcriptional
Metric name: self-cleavage
One number for each entry.

[[record]]
alteration = "G2U G41U"
endpoint_result = 0.0665

[[record]]
alteration = "G31U U64G"
endpoint_result = 0.479

[[record]]
alteration = "G30C G41C"
endpoint_result = 0.232

[[record]]
alteration = "C24G G31U"
endpoint_result = 0.215

[[record]]
alteration = "G11A G28U"
endpoint_result = 0.171


Each of the following entries comes with a recorded value; kindly state self-cleavage for each.
1. G3A G65C
2. G1C G48A

1. 0.338
2. 0.204

Each of the following entries comes with a recorded value; kindly state self-cleavage for each.
1. A40U G56C
2. U61C U62A
3. C29G U43C
4. U21A C66U
5. C9G G14A
6. A8U U49A

0.475
0.554
0.428
0.985
0.783
0.98

Each of the following entries comes with a recorded value; kindly state self-cleavage for each.
1. U26A G68U
2. A42G G48A
3. C34U G50U
4. G25U U38C
5. U38A C54G
6. C6U G50C
7. A13C U36G

1. 0.901
2. 0.979
3. 0.987
4. 0.13
5. 0.8
6. 1.02
7. 0.201
